Reference source: patent US8063099B2

Target: human orexin-1 receptor (Homo sapiens, UniProt O43613)
Construct: expressed in transfected cells; host or cells: Chinese hamster ovary (CHO) cells, G418 selection
Sequence (O43613 1-425): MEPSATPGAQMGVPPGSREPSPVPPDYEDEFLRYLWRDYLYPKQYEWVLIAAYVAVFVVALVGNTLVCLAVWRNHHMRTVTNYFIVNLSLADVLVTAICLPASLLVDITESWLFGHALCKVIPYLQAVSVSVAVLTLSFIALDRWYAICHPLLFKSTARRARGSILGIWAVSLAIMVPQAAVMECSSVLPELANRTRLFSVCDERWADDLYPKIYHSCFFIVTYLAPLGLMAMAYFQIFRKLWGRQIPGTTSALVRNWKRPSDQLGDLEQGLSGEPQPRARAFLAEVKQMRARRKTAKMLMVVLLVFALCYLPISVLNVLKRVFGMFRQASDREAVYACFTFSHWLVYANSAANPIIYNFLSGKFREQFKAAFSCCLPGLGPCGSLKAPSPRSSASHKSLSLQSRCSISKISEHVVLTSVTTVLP
Assay: Intracellular calcium measurements (FLIPR), orexin receptor antagonistic activity
Format: cell-based
Details: FLIPR2; CHO cells expressing human orexin-1 receptor; 3 nM orexin-A; read-out: OX1 IC50
Recorded measurements of IC50, one per entry
MEASURE: IC50 (nM)

> print(dat)
                                   molecule                               target.desc  measure  limit.qualifier  result.number
1  Cc1cccc(-c2sc(C)nc2C(=O)N2C[C@@H]3C[C@@H]3[C@H]2CNC(=O)c2cc(Br)ccc2Cl)c1 [Example 148]  human orexin-1 receptor (Homo sapiens, UniProt O43613)     IC50                =           1080
2  Cc1cccc(-c2sc(C)nc2C(=O)N2C[C@@H]3C[C@@H]3[C@H]2CNC(=O)c2cccc3c2OCC(=O)N3)c1 [Example 169]  human orexin-1 receptor (Homo sapiens, UniProt O43613)     IC50                >          10000
3  O=C(NC[C@@H]1[C@H]2C[C@H]2CN1C(=O)c1ccccc1-c1ccccc1)c1cccc2occc12 [Example 2]  human orexin-1 receptor (Homo sapiens, UniProt O43613)     IC50                =             34
4  Cc1nc(C(=O)N2C[C@@H]3C[C@@H]3[C@H]2CNC(=O)c2c(C)nc3sccn23)c(-c2ccccc2C)s1 [Example 11]  human orexin-1 receptor (Homo sapiens, UniProt O43613)     IC50                =             14
5  Cc1cccc(-c2sc(Br)nc2C(=O)N2C[C@@H]3C[C@@H]3[C@H]2CNC(=O)c2c(C)nc3sccn23)c1 [Example 29]  human orexin-1 receptor (Homo sapiens, UniProt O43613)     IC50                =              4
6  Nc1nc(C(=O)N2C[C@@H]3C[C@@H]3[C@H]2CNC(=O)c2nccc3ccccc23)c(-c2cccc(F)c2)s1 [Example 112]  human orexin-1 receptor (Homo sapiens, UniProt O43613)     IC50                =            115
7  Cc1cccc(-c2sc(C)nc2C(=O)N2C[C@@H]3C[C@@H]3[C@H]2CNC(=O)c2cc(F)cc3c2OCOC3)c1 [Example 42]  human orexin-1 receptor (Homo sapiens, UniProt O43613)     IC50                =             49
